# Tested on: Wolbachia pipientis
# ASSAY_PROTOCOL: Anti-Wolbachia Cell-Based Screen
# Assay type: functional
# Set-up: scale not given: in the data most compounds retested in dose-response had high values
# ASSAY_SETUP: 5 µM
About 13,000 (27%) of roughly 48,000 compounds showed an effect of 50% or more. The list shows a part of the results.
RECORDED_METRIC: Percent Effect (%)

[[record]]
molecule = "Cc1cc(Cl)ccc1C(=O)C1CCCN(Cc2cnc(N(C)C)s2)C1 (stereo unspecified)"
unit_symbol = "%"
observed_result = 5.845

[[record]]
molecule = "O=c1[nH]ccn1CCCN1CC=C(c2cnn(-c3ccccc3)c2)CC1"
unit_symbol = "%"
observed_result = 2.052

[[record]]
molecule = "O=C(O)C(F)(F)F.c1coc(CNc2ncc3c(n2)C2(CCNC2)COC3)c1 (stereo unspecified)"
unit_symbol = "%"
observed_result = -4.361

[[record]]
molecule = "CCc1cc(N2CCNCC2)n2nc(C)c(C)c2n1"
unit_symbol = "%"
observed_result = -8.161

[[record]]
molecule = "CCc1noc(CC)c1CC(=O)N1CCCC(N2CCCCC2)C1 (stereo unspecified)"
unit_symbol = "%"
observed_result = -13.04

[[record]]
molecule = "CCc1noc(C(C)N2CCNCC2)n1 (stereo unspecified)"
unit_symbol = "%"
observed_result = 13


---

# Tested on: Wolbachia pipientis
# ASSAY_PROTOCOL: Anti-Wolbachia Cell-Based Screen
# Type: functional
# Parameters: scale not given: in the data most compounds retested in dose-response had high values
# ASSAY_SETUP: 5 µM
The whole screen tested about 48,000 compounds, of which about 13,000 (27%) showed an effect of 50% or more. The list shows a part of the results.
RECORDED_METRIC: Percent Effect (%)

[[record]]
compound = "COCCN(C)C(C)Cc1ccccc1OC (stereo not drawn)"
study_system = "Wolbachia pipientis"
recorded_metric = "Percent Effect"
observed_result = -4.833

[[record]]
compound = "CN1CCO[C@H]2CN(C(=O)c3ccncc3F)C[C@H]21.O=C(O)C(F)(F)F"
study_system = "Wolbachia pipientis"
recorded_metric = "Percent Effect"
observed_result = -9.265

[[record]]
compound = "Cc1ccccc1CC(=O)N1CCN(C2CCOC2=O)CC1 (stereo not drawn)"
study_system = "Wolbachia pipientis"
recorded_metric = "Percent Effect"
observed_result = 5.646

[[record]]
compound = "Cc1ccccc1CC(=O)N1C[C@H]2CC[C@@H]1CN(Cc1cccnc1)C2"
study_system = "Wolbachia pipientis"
recorded_metric = "Percent Effect"
observed_result = 5.499

[[record]]
compound = "CCn1ccnc1CN1CCCN(C(=O)Cc2csc(C)n2)CC1"
study_system = "Wolbachia pipientis"
recorded_metric = "Percent Effect"
observed_result = 120.7

[[record]]
compound = "O=C(O)C(F)(F)F.c1cnc(N2CCCC3(COCCN(CC4CC4)C3)C2)nc1 (stereo not drawn)"
study_system = "Wolbachia pipientis"
recorded_metric = "Percent Effect"
observed_result = -4.915

[[record]]
compound = "CCc1nc(CN2CCCN(C(=O)Cc3cccs3)CC2)cs1"
study_system = "Wolbachia pipientis"
recorded_metric = "Percent Effect"
observed_result = -3.679

[[record]]
compound = "NC(=O)CN1CCCN(C(=O)Cc2ccc3ccccc3c2)CC1"
study_system = "Wolbachia pipientis"
recorded_metric = "Percent Effect"
observed_result = -1.177

[[record]]
compound = "Cc1nc(CN2CCO[C@H]3CN(C(=O)Cc4cccs4)C[C@H]32)cs1"
study_system = "Wolbachia pipientis"
recorded_metric = "Percent Effect"
observed_result = 2.702

[[record]]
compound = "CC(=O)N1CCN([C@@H]2CN(C(=O)Cc3ccccc3C)C[C@H]2O)CC1"
study_system = "Wolbachia pipientis"
recorded_metric = "Percent Effect"
observed_result = 157.7

[[record]]
compound = "CC[C@H]1CN2CC[C@H]1C[C@@H]2CNC(=O)Nc1cccc(C#N)c1"
study_system = "Wolbachia pipientis"
recorded_metric = "Percent Effect"
observed_result = 1.181

[[record]]
compound = "Cc1ccccc1CC(=O)N1C[C@@H](O)[C@H](N2CCN(C)CC2)C1"
study_system = "Wolbachia pipientis"
recorded_metric = "Percent Effect"
observed_result = 176.4

[[record]]
compound = "CCS(=O)(=O)N1CCc2ccc(NC(=O)Nc3cccc(C#N)c3)cc21"
study_system = "Wolbachia pipientis"
recorded_metric = "Percent Effect"
observed_result = 97.92

[[record]]
compound = "COc1ccc(F)cc1C(=O)C1CCCN(Cc2ccc(C)s2)C1 (stereo not drawn)"
study_system = "Wolbachia pipientis"
recorded_metric = "Percent Effect"
observed_result = -15.99

[[record]]
compound = "CN1CCN(c2ccc(CO)cc2F)CC1"
study_system = "Wolbachia pipientis"
recorded_metric = "Percent Effect"
observed_result = 13.78

[[record]]
compound = "CC(C)(C)CN1CCCC2(CCN(C(=O)c3ccc(O)nc3)C2)C1 (stereo not drawn)"
study_system = "Wolbachia pipientis"
recorded_metric = "Percent Effect"
observed_result = -6.955

[[record]]
compound = "CCn1cc(CN2CCCN(C(=O)Cc3cccs3)CC2)cn1"
study_system = "Wolbachia pipientis"
recorded_metric = "Percent Effect"
observed_result = -6.845

[[record]]
compound = "CCN1CCOCC2(CCCN(C(=O)c3conc3C)C2)C1.O=C(O)C(F)(F)F (stereo not drawn)"
study_system = "Wolbachia pipientis"
recorded_metric = "Percent Effect"
observed_result = 89.52

[[record]]
compound = "Cc1ccc(CN2CC3(CCN(C(=O)c4cccnc4)C3)C2)o1.O=C(O)C(F)(F)F.O=C(O)C(F)(F)F"
study_system = "Wolbachia pipientis"
recorded_metric = "Percent Effect"
observed_result = 90.74

[[record]]
compound = "CCN1CCOCC2(CCCN(C(=O)c3ccncc3F)C2)C1.O=C(O)C(F)(F)F (stereo not drawn)"
study_system = "Wolbachia pipientis"
recorded_metric = "Percent Effect"
observed_result = 92.47

[[record]]
compound = "CCn1ccnc1CN1CCCN(C(=O)Cc2ccc(C)nc2)CC1"
study_system = "Wolbachia pipientis"
recorded_metric = "Percent Effect"
observed_result = -2.19

[[record]]
compound = "CCCN1CCN(Cc2nccn2CC)C(C)C1 (stereo not drawn)"
study_system = "Wolbachia pipientis"
recorded_metric = "Percent Effect"
observed_result = -20.72

[[record]]
compound = "CN1CCC2(CC1)C(=O)N(C)c1ccc(F)cc12.Cl"
study_system = "Wolbachia pipientis"
recorded_metric = "Percent Effect"
observed_result = -19.58


---

# System: Wolbachia pipientis
# ASSAY_PROTOCOL: Anti-Wolbachia Cell-Based Screen
# Format: functional
# Set-up: scale not given: in the data most compounds retested in dose-response had high values
# ASSAY_SETUP: 5 µM
The campaign covered roughly 48,000 compounds. About 13,000 (27%) showed an effect of 50% or more. The list shows a part of the results.
A collection of compounds and their measured Percent Effect
RECORDED_METRIC: Percent Effect (%)

[[record]]
compound = "CCN1CCN(c2cncc(Cl)n2)CC1"
recorded_metric = "Percent Effect"
observed_result = 88.05

[[record]]
compound = "O=C(Nc1cccnc1)[C@H]1CN(Cc2cccs2)C[C@H]2OCC[C@@H]12"
recorded_metric = "Percent Effect"
observed_result = -5.403

[[record]]
compound = "O=C(O)C(F)(F)F.O=S(=O)(C1CC1)N1CCOC2(CCCN(Cc3ccccn3)C2)C1 (stereo unspecified)"
recorded_metric = "Percent Effect"
observed_result = 85.16

[[record]]
compound = "CCS(=O)(=O)NC[C@]12COC[C@H]1CN(Cc1ccccn1)C2.O=C(O)C(F)(F)F.O=C(O)C(F)(F)F"
recorded_metric = "Percent Effect"
observed_result = 3.316

[[record]]
compound = "CCN1CCN(Cc2csc(C(C)C)n2)CC1"
recorded_metric = "Percent Effect"
observed_result = -0.2652

[[record]]
compound = "Cc1cc(C(=O)NCC(=O)N2CCOCC2)nn1C(C)(C)C"
recorded_metric = "Percent Effect"
observed_result = 90.04

[[record]]
compound = "Clc1cncc(N2CCN(Cc3ccon3)CC2)n1"
recorded_metric = "Percent Effect"
observed_result = 98.12

[[record]]
compound = "CCN(CCN1CCCCCC1)C(=O)COc1cccnc1"
recorded_metric = "Percent Effect"
observed_result = -15.49

[[record]]
compound = "NCC1(c2cccc(C(F)(F)F)c2)CC1"
recorded_metric = "Percent Effect"
observed_result = -45.72

[[record]]
compound = "CN(C)Cc1cncc2c1CCN(Cc1ccoc1)C2.Cl.Cl.Cl"
recorded_metric = "Percent Effect"
observed_result = 105

[[record]]
compound = "Cc1ccc(Cl)cc1-n1nnnc1C1(N2CCCC2)CCCCC1"
recorded_metric = "Percent Effect"
observed_result = -13.17

[[record]]
compound = "O=C(O)C(F)(F)F.O=C(O)C(F)(F)F.O=C(O)C(F)(F)F.c1ccc(CN2CCOC3(CCN(c4ncccn4)CC3)C2)nc1"
recorded_metric = "Percent Effect"
observed_result = -2.349

[[record]]
compound = "CC(C)N(C)Cc1cncc2c1CCN(Cc1ccoc1)C2.Cl.Cl.Cl"
recorded_metric = "Percent Effect"
observed_result = 91.96

[[record]]
compound = "COCc1cncc2c1CCN(Cc1ccccn1)C2.O=C(O)C(F)(F)F.O=C(O)C(F)(F)F.O=C(O)C(F)(F)F"
recorded_metric = "Percent Effect"
observed_result = 9.224

[[record]]
compound = "c1cc(CN2CCSC3(CCCCC3)C2)no1"
recorded_metric = "Percent Effect"
observed_result = -28.1

[[record]]
compound = "O=C(O)C(F)(F)F.c1cnc(N2CCOCC3(CN(Cc4cc[nH]n4)CCO3)C2)nc1 (stereo unspecified)"
recorded_metric = "Percent Effect"
observed_result = 10.86

[[record]]
compound = "CCCS(=O)(=O)N1CCOC2(CCCN(Cc3ccccn3)C2)C1.O=C(O)C(F)(F)F (stereo unspecified)"
recorded_metric = "Percent Effect"
observed_result = 106.1

[[record]]
compound = "CN(C)Cc1cncc2c1CCN(Cc1cnn(C)c1)C2.Cl.Cl.Cl"
recorded_metric = "Percent Effect"
observed_result = -9.802

[[record]]
compound = "COCCN1CCN(Cc2cccnc2)[C@H]2CS(=O)(=O)C[C@H]21"
recorded_metric = "Percent Effect"
observed_result = 6.429

[[record]]
compound = "CS(=O)(=O)N1CCOCC2(CN(Cc3ccccn3)CCO2)C1.O=C(O)C(F)(F)F.O=C(O)C(F)(F)F (stereo unspecified)"
recorded_metric = "Percent Effect"
observed_result = -5.644

[[record]]
compound = "CC(=O)N1CC2(CCNCC2)c2cc(C)ccc21"
recorded_metric = "Percent Effect"
observed_result = -30.16

